assay: NCI Yeast Anticancer Drug Screen. Data for the rad52 strain (AID 147);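 further: 0% = growth of vehicle-treated control cultures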; conditions: S. cerevisiae rad52 mutant growth inhibition; at 1.2 µM; stronger effect = higher value
This is part of a sample that, as a whole, favours compounds with a hit. Of some 79,000 tested, about 15% had one in any assay.
quantityName: growth inhibition (%)
Answer with a number only, understood to be in %.

Which measured growth inhibition value corresponds to COc1ccc(N2CN(C)CSC2=S)cc1 ?
-27

Which measured growth inhibition value corresponds to O=C(/C=C\c1ccc([N+](=O)[O-])o1)Nc1ccc(Cl)cc1 ?
69

Which measured growth inhibition value corresponds to c1ccc2c(c1)ccc1c3ccncc3ccc21 ?
15

Which measured growth inhibition value corresponds to CN(C)c1ccc(/C=C/c2ccnc3ccccc23)cc1N ?
-6

Which measured growth inhibition value corresponds to O=[N+]([O-])c1cc(S(=O)(=O)Nc2ccccc2)ccc1Cl ?
2

Which measured growth inhibition value corresponds to CCCCCCCCCCCCCCCCNC(=O)/C(=C\c1ccc(Cl)c(Cl)c1)NC(=O)c1ccccc1 ?
21

Which measured growth inhibition value corresponds to COC(=O)/C=C1/OC(c2ccc(Br)cc2)=C(Br)C1=O ?
-25

Which measured growth inhibition value corresponds to Nc1ccc2c(=S)c3ccccc3[nH]c2c1 ?
8

Which measured growth inhibition value corresponds to CC1CCC2(C(=O)O)CCC3(C)C(=CCC4C5(C)CC(O)C(O)C(C)(CO)C5C(O)CC43C)C2C1C (stereo not drawn) ?
-23

Which measured growth inhibition value corresponds to COC(=O)c1oc([N+](=O)[O-])c(Cl)c1Cl ?
78

Which measured growth inhibition value corresponds to CC(=O)N1C(=O)/C(=C\C(=O)c2ccc([N+](=O)[O-])cc2)c2ccccc21 ?
-14

Which measured growth inhibition value corresponds to Nc1ccc2c(c1)sc1ccccc12 ?
-3

Which measured growth inhibition value corresponds to CN(NC(=O)/C(=C/c1ccc(O)cc1)NC(=O)c1ccccc1)c1ccnc2cc(Cl)ccc12 ?
2

Which measured growth inhibition value corresponds to O=C(/C=N/O)Nc1cc(Cl)c(Cl)cc1Cl ?
-45

Which measured growth inhibition value corresponds to O=NN(CCCl)C(=O)NCCCl ?
0

Which measured growth inhibition value corresponds to O=C(NC(=S)Nc1ccccn1)c1ccccc1 ?
-30

Which measured growth inhibition value corresponds to CN(C)CCNc1cccc2sc3ccc(O)cc3c(=O)c12 ?
0

Which measured growth inhibition value corresponds to Clc1c(Cl)c(Cl)c2n[nH]nc2c1Cl ?
-30

Which measured growth inhibition value corresponds to Cn1ncc2cc3c(Nc4ccc(Cl)cc4)cccc3nc21 ?
2

Which measured growth inhibition value corresponds to O=[N+]([O-])c1c(/C=N/Nc2ccccc2)oc(-c2ccc3c(c2)OCO3)c1-c1ccc2c(c1)OCO2 ?
0

Which measured growth inhibition value corresponds to O=c1[nH]cc(/C=N\Nc2ccccc2)c(=O)[nH]1 ?
1

Which measured growth inhibition value corresponds to CN(Cc1cnc2nc(N)nc(N)c2n1)c1ccc(C(=O)NC(CCC(=O)O)C(=O)O)c2ccccc12 (stereo not drawn) ?
16

Which measured growth inhibition value corresponds to CCCCC(=O)c1c(O)nc2sccn2c1=O ?
8

Which measured growth inhibition value corresponds to O=C1c2c(O)cccc2-c2nn(CCNCCO)c3ccc(NCCNCCO)c1c23 ?
17

Which measured growth inhibition value corresponds to CCC(=O)Oc1ccc(/C=N/NC(N)=S)nc1 ?
-6

Which measured growth inhibition value corresponds to CCOC(=O)C1=C(C)NC(C)=C(C(=O)OCC)C1c1ccccc1Cl ?
-25

Which measured growth inhibition value corresponds to O=S1(=O)c2ccccc2N=C(c2ccccc2Cl)CC1c1ccc(F)cc1 (stereo not drawn) ?
21

Which measured growth inhibition value corresponds to CCn1ncc(N=O)c1N ?
0

Which measured growth inhibition value corresponds to C=Cc1cnc([N+](=O)[O-])n1C ?
2

Which measured growth inhibition value corresponds to Nc1nc(N)c2c(n1)CCC(S(=O)(=O)c1ccc3ccccc3c1)C2 (stereo not drawn) ?
26

Which measured growth inhibition value corresponds to CCOC(=O)C(NC(=O)CC)(N1CCN(c2cc3c(cc2F)c(=O)c(C(=O)O)cn3C2CC2)CC1)C(F)(F)F (stereo not drawn) ?
0

Which measured growth inhibition value corresponds to CC(=O)C1=C(O)C2(C)c3c(O)c(C)c(O)c(C(C)=O)c3OC2(Sc2ccccc2)CC1=O (stereo not drawn) ?
24

Which measured growth inhibition value corresponds to CN(C)CCN1C(=O)c2cccc3cc([N+](=O)[O-])cc(c23)C1=O ?
22
